Where do these numbers come from? They come from the nanobody polyreactivity screen of Harvey et al. (2022).

Assay: yeast display, Sf9 membrane polyspecificity reagent, FACS + sequencing; frameworks hold sequencing errors
MEASURED_ATTRIBUTE: polyreactivity (PSR sort gate)

QVQLVESGGGLVQAGGSLRLSCSASGFIFVDYAMGWYRQSPGKERELVAAISRSGGSTYYADSVKGRFTISRDNAKNTVYLQMNSLKPEDTAVYYCAAKYPFYAKNGYWGQGTQVTVSS; high polyreactivity
QVQLVESCGGLVQAGGSLRLSCSATGSTSVANAMGWYRQAPGKEREIVAAITGYGVSTYYADSVKGRFTISRDNAKNTVFLQMNSLKPEDTAVYYCATRGVSTSRPGYYWGQGTQVSVSS; high polyreactivity

###

Assay: yeast display, Sf9 membrane polyspecificity reagent, FACS + sequencing; frameworks hold sequencing errors
MEASURED_ATTRIBUTE: polyreactivity (PSR sort gate)

QVQLVESGGGLVQAGGSLRLSCAASGFTFRVNAMGWYRQAPGKESELVAAISSGGGITYYADSVKGRFTISRDNAKNTVYLQMNSLKPEDTAVYYCAARENRYLERDYWGQGTQVTVSS; low polyreactivity
QVQLVESGGVLVQAGGSLRLSCAASGSIFYVNAMGWYRQAPGKERELVATITTDGSTNYADSVKGRFTISRDNAKNTVYLPMNSLKPEDTAVYYCAAERWLATPTVPWYLYNYWGQGTQVTVSS; low polyreactivity

###

Assay: yeast display, Sf9 membrane polyspecificity reagent, FACS + sequencing; frameworks hold sequencing errors
MEASURED_ATTRIBUTE: polyreactivity (PSR sort gate)

See these solved cases before continuing.
QVQLVESGGGLVQAGGSLRLSCAASGSTFGANAMGWYRQAPGKERELVAVITWNDGSTYYADSVKGRFTISRDNAKNTVYLQMNSLKPEDTAVYYCATDPTSGRFYYWGQGTQVTVSS; high polyreactivity
QVQLVESGGGLVQAGGSLRLSCADSGHIFFYYTMGWYRQAPGKEREMVAGITIGGSTNYADSVKVRFTISRDNAKNTVYLQMNSLKPEDTAVYYCNVVKYVYIYSYSEYYYWGQGTQVTVSS; low polyreactivity
QFQLVESGGGLVQAGGSLRLSCAASGSTLAPYVMGWYRQAPGKDRELVAVISTRTGRPYYADSVKGRFTISRDNAKNTVYLQMNSLKPEDTGVYYCAARKKTTYRDWGRHDYWGQGTQVTVSS; high polyreactivity
QVQLVESGGGLVQAGGSLRLSCAASGRTFRQYAMGWYRQAPGKERELVAAIRTNGGRTYYADSVKGRFTISRDNAKNTVYLQMNSLKPEDTAVYYCAVYAVVQGVLFDYWGQGTQVTVSS; high polyreactivity

Report polyreactivity (PSR sort gate) for each item below.
1. QVQLVESGGGLVQAGGSLRLSCAASGSLFEWYAMGWSRQAPGKEREFVADITYNGGSTYYADSVKGRFTISRDNAKNTVYLHMNSLKPEDTAVYYCAADYFVQVPDYYYPSEYGYWGQGTQVTVSS
2. QVQLVETAGGLVQAGGSLRLSCAASGSTIRYNVMGWYRQAPGKERELVAAITINGGSTNYADSVKGRFTISRDNAKNTVYLQMNSLKPEDTAVYYCAAAKSYRSGSWYEYWGQGTQVTVSS
3. QVQLVESGGGLVQAGGCLRLSCADSGGTFGPYAMGWYIQAPGKEREFVARITGSGTRTYYADSVKGRFTISGDNAKNNVYLQMNSLNPEDTAVYYCATSHSRGSRGHDYWGQGTQVTVSS
4. QVQLVESGGGLVQAGGSLRLSCASSGFSFLSYTMGWYRQAPGKERELVAAITSGGSTYYADSVKGRFTISRDNAKNTVYLQMNSLKPEDTAVYYCAVTYRWHTFIYDYWGQGTQVTVSS
5. QVQLVESGGGLVQAGGSLRLSCAASGRTFSHYAMGWYRQAPGKERELVAAINTRTGTTYYADSVKGRFTISRDNAKNTVYLQMNSLKPEDTAVYYCNAVPYYSYQGWILVGDYDYWGQGTQVTVSS
6. QVQLVESGGGLVQAGGSLRLSCAASGRTFGPYAMGWYRQAPGKERELVAAISSSEGSTYYADSVKGRFTISRDNAKNTVYLQMNSLKPEDTAVYYCNARYYLWSTTRWYGYDYWGQGTQVTVSS
7. QVQLVESAGGLVQAGGSLRLSCGASGRIYSLYAMGWYRQAPGKERELVAAISWGAGSTYYADSVKGRFTISRDNAKNTVYLQMNSLKREDTAVYYCATGRRYYYPYSSYLKYGYWGQGTQVTVSS

1: low polyreactivity; 2: high polyreactivity; 3: low polyreactivity; 4: low polyreactivity; 5: low polyreactivity; 6: high polyreactivity; 7: high polyreactivity

###

Assay: yeast display, Sf9 membrane polyspecificity reagent, FACS + sequencing; frameworks hold sequencing errors
MEASURED_ATTRIBUTE: polyreactivity (PSR sort gate)

QVQLVESGGGLVQAGGSLRLSCAASGFIFRQNAMGWYRQAPGKERELVAAITSSGGRTYYADSVKGRFTISRDNAKNTVYLQMNSLKPEDTAVYYCARRDYWGQGTQVTVSS; high polyreactivity
QVQLVESGGGLVQAGGSLRLSCAASGFTFFIYAMGWYTQAPGKEREFVAAITGSGGSTYYADSEKGRFTISRDNAKNTVYLQMNSLKTEVTAVYYCATGYWGRRRGGWRSGYWGQGTQVTVSS; high polyreactivity
QVQLVESGARLVQAGGSLRLSCAPSGSIFAYNAMGWYRQAPGKERELVAAITKSGGSTYYADSVKGRFTISRDHAKNTVYLQMNSLKPEDTAVDYCNVVVPHSISSHGDYWGQGTQVTVSS; low polyreactivity
QVQVVESGGGLVKAGGSLRLSCDASGSTFRDYVMGWYRQAPGKERELVAAITGSGSSTYYADSVKGRFTISRDNAKNSVYLQMNSLKPEDTAVYYCAATWVVSYRVNRSYYWGQGTQVTVSS; low polyreactivity
QVQLVESGGGLVQAGGSLRLSCAASGSIFALYAMGWYRQAPGKERELVAAISRRGGRTYYADSVKGRFTISRDNAKNTVYLQMNSLIPEDTAVYYCNARGYNVPHPNRYDYWGQGTQVTVSS; high polyreactivity
QVQLVESRGGLVQAGGSLRLSCAASGRIFGSYAMGWYRQAPGKERVLVAAISYSGGSTYYADSVKGRFTISRDNAKNTVYLQMNSLKPEDTAVYYSNVDRYYGYFSVRGGYWGQGTQVTVSS; low polyreactivity
QVQLVDSGGGLVQAGGSLRLSCAASGRIIWYKGMGWYTQATGKERELVAAINRGTSTYYADSVKGRFTISRDNAKNSVYLQMNSLKPEDTAVYYCAAGVSRWYYYWGQGTQVTVSS; high polyreactivity
QDQLVESGGGLVQARGSLRLSCAASGSIYSRNALGWYRQAPGKERELVAAITYRGGNTYYADSVKGRFTISRDNANNNLYLQMNSLKPEDTAVYYCAADTYGWLYAFEYWGQGTQVTVSS; low polyreactivity

Dear colleague, could you send me polyreactivity (PSR sort gate) for each of the items below? Thanks.
1. QVQLVESGGGLVQAGGSLRLSCAASGYTFLAYAMGWYRQAPGKERELVAAISSGGRTYYADSVKGRFTISRDNAKNTVYLQMHSLKREDTAVYYCAAYPLRYRQYWGFVYWGQGTQVTVSS
2. QVQLVESGGGLVQAGGSLRLSCAASGRIFTSNAMGWYRQAPGKERELVAAISGSGGRTYYADSVKGRFTISRDNAKNTVYLQMNSLKPEDTAVYYCAVGTRVKYDYWGQGTQVTVSS

high polyreactivity
high polyreactivity

// polyreactivity (PSR sort gate) lookup, key: QVQLVESGGGLVQAGGSLRLSCAASGSILSINGMGWYRQAPGKERELVATIDGSDGSTFYADSVKGRFTISRDNAKNTVYLQMNSLKPEDTAVYYCAAENFWQTKEYDYWGQGTQVTVSS
low polyreactivity

###

Assay: yeast display, Sf9 membrane polyspecificity reagent, FACS + sequencing; frameworks hold sequencing errors
MEASURED_ATTRIBUTE: polyreactivity (PSR sort gate)

Example results:
QVQLVESGGGLVQAGGSLRLSCAASGIIQVYNTMGWYRQAPGKERELVAAINYSGGSTNYADSVKGRFTISRDNAKNTVYFQMNSLKPEDTAVYYCNARYGGFNVPYLRYEHWGQGTQVTVSS; low polyreactivity
QVQLVESGGGLVQEGGSLSLICAASGRIYTPYAMGSYRQAPGKERELVAVIRDGSTYYADSVKGRFTISRDNAKNTVYLQMNSLKPADTAVYDCRYDIWVWWSGAYDYWGQCTQVTVSS; low polyreactivity
QVQLVESGGGIVQAGGSLRLSCAASGRIFRINGMGWYRQAPGKEREFVAAITSGGGTYYADSVKGRFTISRDNAKNTVYLQMNSLKAEDTAVFYCAVRRRYGDDYWGHGTQVTVSS; high polyreactivity
QVQLEESGGGLVQAGGSLRLSCAASGIIFGRYAMGWYRQAPGKQRELVAAITSGGSTSYADSVKGRFTISRDNAKNTVYLQMNSLKPEDTAVYYCAVVFVWGWPGYYWGQGTQVTVSS; high polyreactivity
QVQLVESGGGLVQAGGSLRLSCAASGFIFQYYAMGWYRQAPGKERELVAAITSGGTTYYADSVKGRFTISRDNAKNTVYLQMNSLKPEDTAVYYCAAVFVNFYARFDYWGQGTQVTVSS; low polyreactivity
QVQLVESGGGLVQAGGSLRLSCAASGRIFDRYGMGWYRQAPGKERELLAAITSRGGSTYYADSVKGRFTISRDNAKNTVYLQMNSLKPEDTAVYYCAAYGRYGFGRVERYDYWGQGTQVTVSS; high polyreactivity
QDQLVESGGGLVQAGGSLRLSCAASGSSFGYYAMGWYRQAPGKERELVASISWRGVSTYYADSVKGRFTISRDNAKNTVYIQMNSLKPEDTAVYYCATVYRWSFDYWGQGTQVTVSS; low polyreactivity
QVQLVESGGGLVQAGGSLRLSSAASGLIFSVNAMGWYRQAPGKESEMIAAISKSGGRTYYADSVKGRFTISRDNAKNTVYLQMNSLKPEDTAVYYCAKRSRWNYKGYGTCGYYWGQGTQVTVSS; high polyreactivity
QVQLVESGGGLVQARGSLRLSCAASVIIFRLYGRGWYRQAPGKEREFVATITWRGGRTNYADSVKGRFTISRDNAKNTVYLQMNSLKPEDTAVYYCAKVVRYARSNEYDSWGQGTQVTVSS; low polyreactivity
QVQLVESGGGLVQAGGSLRLSCADSGFTFDWYAMGWYRQAPGKERELVAAISGRGGSTYYADSVKGRFTISRDNAKNTVYLQMNSLKPEDTAVYDCNAVYGAYRYEYWGQGTQVTVSS; high polyreactivity

Please give polyreactivity (PSR sort gate) for each item listed below.
1. QVQLVESGGGLVQAGGSLRLICAASGSTSPYYTRGWYRQAPGKERELVASINESGGSTYYADSVKARFTISRDNAKNTVYLQMHTLKPEDTAGYNCNAEYTTPSYPVYSIDYYWFDYWGQGTQVTVSS
2. QVHLVESGGGLVQAGGSLRLSCAASGFTFGVYAMGWYRQAPGKEREFVAAISTTVGSTYYADSVKGRFTISRDNAKNTVYLQLNSLKPEDTAVYYCAAEYTGYINYYIYEYWGQGTQVTVSS
3. QVQLVESGGGLVQAGGSLRLSCAASGSTFFGNAMGWYRQAPGKERELVAAITSGGSTNYADSVKGRFTISRDNAKNTVYLQMNSLKPEDTAVYYCAKPSRWGWTGFYAYDYWGQGTQVTVSS

low polyreactivity
low polyreactivity
low polyreactivity

// input: 8 sequences below; output: polyreactivity (PSR sort gate) for each
1. QVQLVESGGGLVQAGGSLRLSCAASGSTFYYYAMGWYRQAPGKEMELVAAISGSGGNTYYADSVKGRFTISRDNAKNTVYLQMNSLKPEDTAVYYCAADYGYPLGVSWYGYGYWGQGTQVTVSS
2. QVHLVDSGGGLVQARGSLRLSCAASGLTFRYYTMAWYRQAPGKERELVAAISSSGGSTYYADSVKGRFTISRDNAKNTVYLQMNSLKPEDTAVYYCADSASLRHVYWGQGTQVTVSS
3. QVQLVESGGALVQAGGSLRLSCAASGIIFWLYDMGWSRQAPGKERELVAVMTWSGDSTYADSVKGRFTISRDNAKNTVYLQMNSLKPEDNAVYYCAAREYYRKPYDHWGQGTQVTVSS
4. QVQLVESGGGLVQAGGSLRLSCAASGFTLPLYAMGWYRQAPGKERELVATISSGGTTYYADSVKGRFTISRDNAKNTVYLEMNCLKPEDTGVYYCAAGGTFFHRFYYYYRSDYWGQGTQVTVSS
5. QVQLVESGGGLVQAGGSLRLSCAASGSIFSANAMGWYRQAPGKERELVAAINSGGGTYYADSVKGRFTISRDNAKNTVFLQMNSLKPEDTAVYYCATDAVYIKGKYYTHEYWGQGTQVTVSS
6. QVQLVESGGGLVQAGGSLRLSCAASGFLFRYYTMGWYRQAPGKERDLVAVITRGGSTYYADSVKGRFTISRDNAKNTVYLQMNSLKPEDTAVYYCAAVRTKVWRGPEMDYWGQGTQVTVSS
7. QVQLVESGGGLVQAGGSLRLSCAASGPTFYYYAMGWYRQAPGKERELVAAITWSGGSTYYADSVKGRFTISRDNAKNTVYLQMNSLKPEDTAVYYCAADVTYSRYEYWGQGTQVTVSS
8. QVQLVESGGGLVQAGGSLRLSCAASGFIFSRYAMGWYRQAPGKERELVAAISIGGSTYYADSVKGRFTISRDNAKNTVYVQMNSLKPEDTAVYYCPVDYRHSSSWNAGPWEMYYWGQGTQVTVSS

1. low polyreactivity
2. high polyreactivity
3. high polyreactivity
4. high polyreactivity
5. high polyreactivity
6. high polyreactivity
7. low polyreactivity
8. low polyreactivity
